test-target: T1, SdrF N1N2N3 (52-679), His-tagged recombinant A domain of S. epidermidis SdrF (Staphylococcus epidermidis (K28 genomic …, UniProt Q9KI14 53-678))
T1 construct: expressed in E. coli; also called SdrF A domain
T1 sequence: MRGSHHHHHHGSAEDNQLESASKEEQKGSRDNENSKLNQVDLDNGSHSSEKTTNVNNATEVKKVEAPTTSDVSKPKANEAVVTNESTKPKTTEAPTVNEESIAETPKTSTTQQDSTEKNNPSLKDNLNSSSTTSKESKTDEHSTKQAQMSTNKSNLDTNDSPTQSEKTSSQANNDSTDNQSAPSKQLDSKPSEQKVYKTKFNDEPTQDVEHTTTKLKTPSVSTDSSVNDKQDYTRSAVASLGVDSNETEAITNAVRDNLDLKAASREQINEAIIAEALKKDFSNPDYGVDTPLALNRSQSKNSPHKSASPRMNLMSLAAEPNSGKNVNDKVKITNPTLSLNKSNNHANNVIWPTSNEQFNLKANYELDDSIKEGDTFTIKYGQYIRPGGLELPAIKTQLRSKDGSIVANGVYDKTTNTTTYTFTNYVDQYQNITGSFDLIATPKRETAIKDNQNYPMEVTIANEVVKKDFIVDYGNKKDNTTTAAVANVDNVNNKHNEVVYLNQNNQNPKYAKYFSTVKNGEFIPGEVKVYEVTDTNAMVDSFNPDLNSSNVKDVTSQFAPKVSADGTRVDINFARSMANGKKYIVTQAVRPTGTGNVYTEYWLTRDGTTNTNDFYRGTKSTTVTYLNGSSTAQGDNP
run-description: Biacore 3000, ligand capture of mAb, SdrF (N1N2N3) in flow
property-label: Ka (M⁻¹)
Just the number please, in M⁻¹, no unit attached.

Solved cases below.
binder: murine anti-SdrF monoclonal antibody 108-36 (antibody, V domains shown, Mouse hybridoma antibody (fusion F108)) VH: QVTLRESGPGILQPSQTLSLTCSFSGFSLNTSGMGVTWIRQPSGKGLEWLANIYWDDDKRYNPSLKSRLTISKANSRNQVFLKITSVDTADTATYYCTRPNYLGTVYWYFDVWGAGTMVTVSS VL: QIVLTQSPAIMSASPGEKVTMTCSASSSVSYMYWYQQKPGSSPRVLIYDTSNLASGVPVRFSGSGSGTSYSLTISRMEAEDAATYYCQQWNGYPPTFGAGTKLEVK
Ka (M⁻¹): 4.5e+09

binder: murine anti-SdrF monoclonal antibody 108-1 (antibody, V domains shown, Mouse hybridoma antibody (Balb/C, fusion F108)) VH: EVQLQQSGAELVKPGASVKLSCTASGFNIKDTYIHWVKQRPEQGLEWIGRIDPANGNTHYDSQFQGKATITADTSSNTAYLQLSSLTSDDTAVYYCTRRVGYAMDYWGQGTSVTVSS VL: DIVMTQSHKFMSTSVGDRVIITCKASQDVNTALAWYQQKPGQSPKLLIYSASYRYTGVPDRFTGSGSGTDFTFTISSVQAEDLAVYYCQQHYSTPPYTFGGGTKLEIK
Ka (M⁻¹): 6.2e+08

# input Consider the binder shown here: Humanized 108-1 (antibody, V domains shown, Humanized (veneered) variable regions spliced into plasmids with 'the appropriate light or heavy chain constant region', expressed in NSO cells) VH: QVQLVQSGAEVVKPGASVKLSCKASGFNIKDTYIHWVKQRPGQGLEWIGRIDPANGNTHYDSQFQGKATITADTSTSTAYLQLSSLRSEDTAVYYCTRRVGYAMDYWGQGTTVTVSS VL: DIVMTQSQKFMSTSVGDRVTITCKASQDVNTALAWYQQKPGQSPKLLIYSASYRYTGVPSRFSGSGSGTDFTFTISSVQAEDLAVYYCQQHYSTPPYTFGGGTKLEIK What is its recorded Ka?
# output 5.6e+08
